Tested on: HepG2
Assay: cytotoxicity call (relative viability < 0.9)
Settings: 10 µM
Out of some 39,000 compounds screened, about 3,300 (8.5%) were called active. For the sample, actives were picked, then their nearest neighbours and some compounds at random.
observed.property: cytotoxicity call

molecule	experimental.target	recorded.measurement
C=C(NC(=O)C(=C)NC(=O)c1csc(C2=NC3c4csc(n4)C4NC(=O)c5csc(n5)C(C(C)(O)C(C)O)NC(=O)C5CSC(=N5)C(=CC)NC(=O)C(C(C)O)NC(=O)c5csc(n5)C3(CC2)NC(=O)C(C)NC(=O)C(=C)NC(=O)C(C)NC(=O)C(C(C)CC)NC2C=Cc3c(C(C)O)cc(nc3C2O)C(=O)OC4C)n1)C(N)=O (configuration not stated)	HepG2	active
C=C(NC(=O)C(=C)NC(=O)c1csc(C2=N[C@H]3c4csc(n4)[C@H]4NC(=O)c5csc(n5)[C@H](C(C)(O)[C@@H](C)O)NC(=O)[C@H]5CSC(=N5)C(=CC)NC(=O)[C@H]([C@@H](C)O)NC(=O)c5csc(n5)[C@]3(CC2)NC(=O)[C@H](C)NC(=O)C(=C)NC(=O)[C@H](C)NC(=O)[C@H]([C@H](C)CC)N[C@@H]2C=Cc3c([C@H](C)O)cc(nc3[C@H]2O)C(=O)O[C@@H]4C)n1)C(N)=O (some centres not stated)	HepG2	active

* * *

Tested on: HepG2
Assay: cytotoxicity call (relative viability < 0.9)
Conditions: 10 µM
Hit rate of the full screen: of about 39,000 compounds, about 3,300 (8.5%) were called active. The sample as a whole holds a higher share of actives than the screen did.
observed.property: cytotoxicity call

> print(dat)
                              line.notation  recorded.measurement
1  CC=Cc1ccc2n(c1=O)C[C@H]1[C@H](CO)[C@@H](C(=O)NC3CCC3)N(S(C)(=O)=O)[C@@H]21              inactive
2  C[C@H](CO)N1C[C@H](C)[C@H](CN(C)Cc2ccc(C(F)(F)F)cc2)OCCCC[C@H](C)Oc2ccc(NC(=O)Nc3ccc4c(c3)OCO4)cc2C1=O              inactive
3  C[C@H](CO)N1C[C@H](C)[C@@H](CN(C)Cc2ccc(C(F)(F)F)cc2)OCCCC[C@H](C)Oc2ccc(NC(=O)Nc3ccc4c(c3)OCO4)cc2C1=O              inactive

* * *

Test system: HepG2
Assay: cytotoxicity call (relative viability < 0.9)
Conditions: 10 µM
The campaign covered roughly 39,000 compounds. About 3,300 (8.5%) were called active. This excerpt belongs to a sample that is enriched for actives.
observed.property: cytotoxicity call

> print(dat)
                              line.notation  experimental.target  observed.property  recorded.measurement
1  Cc1ccc(-c2ccc3c(c2)O[C@@H](CN(C)C(=O)CN(C)C)[C@H](C)CN([C@@H](C)CO)S3(=O)=O)cc1                HepG2  cytotoxicity call              inactive
2  Cc1ccc(S(=O)(=O)Nc2ccc3c(c2)C(=O)N([C@H](C)CO)C[C@H](C)[C@H](CN(C)S(=O)(=O)c2ccc(C)cc2)OCCCC[C@@H](C)O3)cc1                HepG2  cytotoxicity call              inactive
3  Cc1noc(C)c1NC(=O)Nc1ccc2c(c1)CC(=O)N([C@@H](C)CO)C[C@H](C)[C@@H](CN(C)Cc1ccc(C(=O)Nc3ccccc3N)cc1)O2                HepG2  cytotoxicity call              inactive

* * *

Test system: HepG2
Assay: cytotoxicity call (relative viability < 0.9)
Conditions: 10 µM
Hit rate of the full screen: of about 39,000 compounds, about 3,300 (8.5%) were called active. What follows is part of a selection rich in actives, with near analogues and random picks from the rest.
Output constraint: value belongs to 1 = active, -1 = inactive

For orientation, consider the following solved cases.
> print(dat)
                              line.notation  qualitative.label
1  Cc1ccc(S(=O)(=O)Nc2ccc3c(c2)C(=O)N([C@H](C)CO)C[C@H](C)[C@H](CN(C)Cc2ccc(Oc4ccccc4)cc2)O3)cc1                 -1
2  C[C@H](CO)N1C[C@H](C)[C@H](CN(C)C(=O)Nc2ccc3c(c2)OCO3)Oc2ccc(NC(=O)CCN3CCOCC3)cc2C1=O                 -1
3  C[C@@H]1CN([C@@H](C)CO)C(=O)c2cc(NC(=O)CCN3CCOCC3)ccc2O[C@@H]1CN(C)C(=O)Nc1ccc2c(c1)OCO2                  1
4  Cc1ccc(S(=O)(=O)Nc2ccc3c(c2)C(=O)N([C@H](C)CO)C[C@@H](C)[C@@H](CN(C)Cc2ccc(Oc4ccccc4)cc2)O3)cc1                  1
5  Cc1ccc(S(=O)(=O)Nc2ccc3c(c2)C(=O)N([C@H](C)CO)C[C@H](C)[C@@H](CN(C)Cc2ccc(Oc4ccccc4)cc2)O3)cc1                 -1
6  Cc1ccc(S(=O)(=O)Nc2ccc3c(c2)C(=O)N([C@@H](C)CO)C[C@H](C)[C@H](CN(C)Cc2ccc(Oc4ccccc4)cc2)O3)cc1                 -1
7  CO[C@H]1CN(C)C(=O)c2ccc(NC(=O)NC(C)C)cc2OC[C@@H](C)N(Cc2ccc(-c3ccccn3)cc2)C[C@@H]1C                 -1
8  Cc1ccc(S(=O)(=O)Nc2ccc3c(c2)C(=O)N([C@@H](C)CO)C[C@@H](C)[C@H](CN(C)Cc2ccc(Oc4ccccc4)cc2)O3)cc1                 -1

IN: Returns: the outcome recorded for `C[C@@H]1CN([C@H](C)CO)C(=O)c2cc(NC(=O)CCN3CCOCC3)ccc2O[C@@H]1CN(C)C(=O)Nc1ccc2c(c1)OCO2` in this assay.
OUT: -1

IN: Returns: the outcome recorded for `Cc1ccc(S(=O)(=O)Nc2ccc3c(c2)C(=O)N([C@@H](C)CO)C[C@H](C)[C@@H](CN(C)Cc2ccc(Oc4ccccc4)cc2)O3)cc1` in this assay.
OUT: -1

IN: Returns: the outcome recorded for `C[C@H]1CN([C@@H](C)CO)C(=O)c2cc(NC(=O)CCN3CCOCC3)ccc2O[C@H]1CN(C)C(=O)Nc1ccc2c(c1)OCO2` in this assay.
OUT: -1

IN: Returns: the outcome recorded for `Cc1ccc(S(=O)(=O)Nc2ccc3c(c2)C(=O)N([C@H](C)CO)C[C@@H](C)[C@H](CN(C)Cc2ccc(Oc4ccccc4)cc2)O3)cc1` in this assay.
OUT: 1

IN: Returns: the outcome recorded for `C[C@H](CO)N1C[C@H](C)[C@H](CN(C)Cc2ccc(C(=O)Nc3ccccc3N)cc2)OCc2cnnn2CCCC1=O` in this assay.
OUT: -1

IN: Returns: the outcome recorded for `C[C@@H]1CN([C@@H](C)CO)C(=O)CCCn2cc(nn2)CO[C@H]1CN(C)S(=O)(=O)c1ccccc1C#N` in this assay.
OUT: -1

* * *

Tested on: HepG2
Test: cytotoxicity call (relative viability < 0.9)
Conditions: 10 µM
The campaign covered roughly 39,000 compounds. About 3,300 (8.5%) were called active. The sample holds actives, similar compounds and a random draw of the others, so the mix is not that of the screen.
Output constraint: value belongs to true (active), false (inactive)

> print(dat)
                              line.notation  qualitative.label
1  C[C@H]1CCCCO[C@H](CN(C)C(=O)Nc2ccc(C(F)(F)F)cc2)[C@@H](C)CN([C@@H](C)CO)C(=O)c2cc(NC(=O)c3ccccc3)ccc2O1              false
2  O=C(Nc1cccc2cccnc12)[C@@H]1[C@H](c2ccc3ccccc3c2)CC(=O)N1C(=O)OCc1ccccc1              false
3  COc1c(OCCCN2CCOCC2)ccc2c1N=C(NC(=O)c1cnc(N)nc1)N1CCN=C21              false

# input for lookup
IN: Returns: the outcome recorded for `Cc1noc(C)c1S(=O)(=O)Nc1cccc2c1O[C@H](CN(C)C(=O)NC(C)C)[C@H](C)CN([C@@H](C)CO)C2=O` in this assay.
OUT: false

* * *

Test system: HepG2
Test: cytotoxicity call (relative viability < 0.9)
Details: 10 µM
The whole screen tested about 39,000 compounds, of which about 3,300 (8.5%) were called active. Many of the other results were omitted from the sample, so actives are more common in it than they were.
Output constraint: value belongs to active, inactive

> print(dat)
                              line.notation  experimental.target  qualitative.label
1           Cc1cc(C(=O)O)sc1[C@@H](N)C(=O)O                HepG2           inactive
2  COc1ccc(S(=O)(=O)Nc2ccc3c(c2)CC(=O)N([C@@H](C)CO)C[C@H](C)[C@@H](CN(C)Cc2ccc(Cl)c(Cl)c2)O3)cc1                HepG2           inactive

IN: Returns: the outcome recorded for `COc1ccc(S(=O)(=O)Nc2ccc3c(c2)CC(=O)N([C@@H](C)CO)C[C@H](C)[C@H](CN(C)Cc2ccc(Cl)c(Cl)c2)O3)cc1` in this assay.
OUT: active

IN: Returns: the outcome recorded for `CC(C)=CCC/C(C)=C/CC/C(C)=C/CC/C(C)=C/CO` in this assay.
OUT: inactive

IN: Returns: the outcome recorded for `COc1ccc(S(=O)(=O)Nc2ccc3c(c2)CC(=O)N([C@H](C)CO)C[C@@H](C)[C@H](CN(C)Cc2ccc(Cl)c(Cl)c2)O3)cc1` in this assay.
OUT: active

IN: Returns: the outcome recorded for `COc1ccc(S(=O)(=O)Nc2ccc3c(c2)CC(=O)N([C@@H](C)CO)C[C@@H](C)[C@@H](CN(C)Cc2ccc(Cl)c(Cl)c2)O3)cc1` in this assay.
OUT: active

IN: Returns: the outcome recorded for `COc1ccc(S(=O)(=O)Nc2ccc3c(c2)CC(=O)N([C@@H](C)CO)C[C@@H](C)[C@H](CN(C)Cc2ccc(Cl)c(Cl)c2)O3)cc1` in this assay.
OUT: inactive
